- MEASUREMENT TARGET: Gamma-aminobutyric acid receptor subunit alpha-5 (Homo sapiens) (UniProt P31644)
- Sequence (P31644 whole entry): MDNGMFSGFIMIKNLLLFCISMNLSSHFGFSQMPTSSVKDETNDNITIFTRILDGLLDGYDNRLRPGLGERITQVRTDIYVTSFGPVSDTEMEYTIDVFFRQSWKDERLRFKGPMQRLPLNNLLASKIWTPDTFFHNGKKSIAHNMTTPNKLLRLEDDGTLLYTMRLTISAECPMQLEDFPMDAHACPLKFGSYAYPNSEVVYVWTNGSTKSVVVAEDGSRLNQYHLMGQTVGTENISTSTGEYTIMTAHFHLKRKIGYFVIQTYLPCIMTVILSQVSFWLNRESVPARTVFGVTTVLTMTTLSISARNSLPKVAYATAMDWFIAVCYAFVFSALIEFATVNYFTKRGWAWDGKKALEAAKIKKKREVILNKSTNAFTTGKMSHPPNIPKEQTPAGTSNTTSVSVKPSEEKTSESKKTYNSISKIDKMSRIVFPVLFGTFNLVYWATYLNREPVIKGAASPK
- METHOD SUMMARY: Selectivity for GABA-A receptor alpha-5 subunit binding over alpha-1,2,3 when co-expressed with beta-3 and gamma-2
Readings of Selectivity for the listed compounds

{"columns": ["STRUCTURE SMILES STRING", "Selectivity"],
 "data": [
  ["CSc1sc(-c2ccccn2)c2c1C(=O)CC(C)(C)C2", 26],
  ["CSc1sc(-c2cc[nH]n2)c2c1C(=O)CC(C)(C)C2", 13],
  ["CC1(C)CC(=O)c2c(SCCO)sc(-c3cc[nH]n3)c2C1", 11],
  ["CSc1sc(-c2ccncc2)c2c1C(=O)CC(C)(C)C2", 19],
  ["CSc1sc(-c2nccs2)c2c1C(=O)CC(C)(C)C2", 28],
  ["CC1(C)CC(=O)c2c(SSc3nccs3)sc(-c3cc[nH]n3)c2C1", 3],
  ["CCSc1sc(-c2cc[nH]n2)c2c1C(=O)CC(C)(C)C2", 10],
  ["CC(C)Sc1sc(-c2cc[nH]n2)c2c1C(=O)CC(C)(C)C2", 6],
  ["CSc1sc(-c2cccnc2)c2c1C(=O)CC(C)(C)C2", 28],
  ["CCc1c(C(=O)OC)ncc2[nH]c3cc(OC)c(OC)cc3c12", 3],
  ["CC1(C)CC(=O)c2c(SCCO)sc(-c3ccccn3)c2C1", 20],
  ["CC1(C)CC(=O)c2c(SCCO)sc(-c3nccs3)c2C1", 13]
]}
